- Tgt: Claudin18.2-His protein (human)
- Assay notes: indirect ELISA on coated Claudin18.2-His
Measured property: EC50 (ng/mL)
Hi! Could you send only the number? It should be in ng/mL, unit omitted.

[
  {
    "Binder": "412B6E4 (antibody, V domains shown) VH: DVQLVESGGGLVQPGGSRKLSCAASGFTFSSFGVHWVRQAPEKGLEWVAYISSGSSTIYYAHSVKGRFTISRDNPKNTLFLQMTSLGSEDTATYYCARFYYGNSFAYWGQGTLVTVSA VL: DIVMTQSPSSLTVTAGEKVTMSCKSSQSLLNSGNQKNYLTWYQQKPGQPPKMLIYWASTRESGVPDRFTGSGSGTDFTLTISSVQAEDLAVYYCQNAYTYPLTFGAGTRLELK",
    "Reading": 6.31
  }
]

Turning now to a further binder:
Provide only the value of recorded EC50 for 406G3C4 (antibody, V domains shown) VH: EIQLQQSGPELMKPGASVRISCKASGYSFISYYIYWVKQSHGKGLEWIGYIDPFNGNTNYNQKFKGKATLTVDRSSSTAYIHLNSLTSEDSAVYYCAIVNGYGRGAMDYWGQGTSVTVSS VL: QIVLTQSPAIMSASPGEKVTMTCSASSSISYMHWYQQKSGTSPKRWIYDTSKLASGVPARFSGSGSGTSYSLTISSMEAEDAATYYCQQWSSNPLTFGDGTKLELK
9.18
